These entries and their values trace back to ChEMBL document CHEMBL1926614.

Reported inhibition of growth at 10 µM by item:
# Tested on: LOX IMVI
# PROTOCOL TEXT: Growth inhibition of human LOXIMVI cells at 10 uM after 48 hrs by coulter counting
# Type: functional
# EXPERIMENTAL PARAMETERS: read-out: GI

# count of solved cases: 10
[
  {
    "MOLECULE": "CCN1CC2=C(N=C3SC=C(C)N3C2c2ccc(OC)cc2)/C(=C/c2ccc(OC)cc2)C1 (configuration not stated)",
    "inhibition of growth at 10 µM": "> 10%"
  },
  {
    "MOLECULE": "COc1ccc(/C=C2\\CCCC3=C2N=C2SC=CN2C3c2ccc(OC)cc2)cc1 (configuration not stated)",
    "inhibition of growth at 10 µM": "> 10%"
  },
  {
    "MOLECULE": "COc1ccc(/C=C2\\CCCC3=C2N=C2SC=C(C)N2C3c2ccc(OC)cc2)cc1 (configuration not stated)",
    "inhibition of growth at 10 µM": "> 10%"
  },
  {
    "MOLECULE": "C1=CN2C(=NC3=C(CCC/C3=C\\c3cccs3)C2c2cccs2)S1 (configuration not stated)",
    "inhibition of growth at 10 µM": "13%"
  },
  {
    "MOLECULE": "CCN1CC2=C(N=C3SC=CN3C2c2cccs2)/C(=C/c2cccs2)C1 (configuration not stated)",
    "inhibition of growth at 10 µM": "> 10%"
  },
  {
    "MOLECULE": "COc1ccc(/C=C2\\CCCC3=C2N=C2SC=CN2C3c2ccc(OC)c(OC)c2)cc1OC (configuration not stated)",
    "inhibition of growth at 10 µM": "16.4%"
  },
  {
    "MOLECULE": "CC1=CSC2=NC3=C(CCC/C3=C\\c3ccccc3)C(c3ccccc3)N12 (configuration not stated)",
    "inhibition of growth at 10 µM": "> 10%"
  },
  {
    "MOLECULE": "CCN1CC2=C(N=C3SC=C(C)N3C2c2cccs2)/C(=C/c2cccs2)C1 (configuration not stated)",
    "inhibition of growth at 10 µM": "> 10%"
  },
  {
    "MOLECULE": "COc1cc(/C=C2\\CCCC3=C2N=C2SC=C(C)N2C3c2cc(OC)c(OC)c(OC)c2)cc(OC)c1OC (configuration not stated)",
    "inhibition of growth at 10 µM": "> 10%"
  },
  {
    "MOLECULE": "C1=CN2C(=NC3=C(CCC/C3=C\\c3ccccc3)C2c2ccccc2)S1 (configuration not stated)",
    "inhibition of growth at 10 µM": "> 10%"
  }
]

input: Missing value: inhibition of growth at 10 µM, LOX IMVI, entry CC1=CSC2=NC3=C(CCC/C3=C\c3cccs3)C(c3cccs3)N12 (configuration not stated) . Fill in?
output: > 10%

input: Param readout= inhibition of growth at 10 µM; system= LOX IMVI; entry= COc1ccc(/C=C2\CCCC3=C2N=C2SC=C(C)N2C3c2ccc(OC)c(OC)c2)cc1OC (configuration not stated) ; returns value.
output: > 10%

====

Measured CC50 accompanies every entry in the list below.
# PROTOCOL TEXT: Cytotoxicity against human ovarian cancer cells after 48 hrs by coulter counting
# Type: functional
# EXPERIMENTAL PARAMETERS: Cancer cell lines, read-out: LC50 (the source's name)
Respond numerically; units are µM and should not be typed.

[
  {
    "COMPOUND": "CCN1CC2=C(N=C3SC=CN3C2c2ccc(OC)cc2)/C(=C/c2ccc(OC)cc2)C1 (stereo not given)",
    "MEASURED METRIC": "CC50",
    "RECORDED RESULT": 74.7
  }
]

We next turn to a different compound, shown below.
input: # lookup: CC50 of CCN1CC2=C(N=C3SC=CN3C2c2ccc(OC)c(OC)c2)/C(=C/c2ccc(OC)c(OC)c2)C1 (stereo not given)
output: 90.5

====

# GI50 listing for each entry below
# PROTOCOL TEXT: Cytotoxicity against human colon cancer cells after 48 hrs by coulter counting
# Assay type: functional
# EXPERIMENTAL PARAMETERS: Cancer cell lines
Please give a number only; it is taken to be in nM.

Solved entries (count: 4):
[
  {
    "MOLECULE": "CCN1CC2=C(N=C3SC=CN3C2c2ccc(OC)cc2)/C(=C/c2ccc(OC)cc2)C1 (stereo not given)",
    "MEASURED METRIC": "GI50",
    "UNIT TAG": "nM",
    "RECORDED RESULT": 1700
  },
  {
    "MOLECULE": "O=c1[nH]cc(F)c(=O)[nH]1",
    "MEASURED METRIC": "GI50",
    "UNIT TAG": "nM",
    "RECORDED RESULT": 8400
  },
  {
    "MOLECULE": "CCN1CC2=C(N=C3SC=CN3C2c2ccc(OC)c(OC)c2)/C(=C/c2ccc(OC)c(OC)c2)C1 (stereo not given)",
    "MEASURED METRIC": "GI50",
    "UNIT TAG": "nM",
    "RECORDED RESULT": 2000
  },
  {
    "MOLECULE": "CCN1CC2=C(N=C3SC=C(C)N3C2c2ccc(OC)c(OC)c2)/C(=C/c2ccc(OC)c(OC)c2)C1 (stereo not given)",
    "MEASURED METRIC": "GI50",
    "UNIT TAG": "nM",
    "RECORDED RESULT": 2100
  }
]

Here is another molecule to look at.
input: Using the record for COc1cc(/C=C2\CCCC3=C2N=C2SC=CN2C3c2cc(OC)c(OC)c(OC)c2)cc(OC)c1OC (stereo not given) , report its GI50.
output: 1600

====

Listed next: entries and their corresponding inhibition of growth at 10 µM.
# Test system: SF-295
# PROTOCOL TEXT: Growth inhibition of human SF295 cells at 10 uM after 48 hrs by coulter counting
# Assay type: functional
# EXPERIMENTAL PARAMETERS: SF-295, 48 h, read-out: GI

Answered examples (3):
[
  {
    "COMPOUND": "COc1ccc(/C=C2\\CCCC3=C2N=C2SC=CN2C3c2ccc(OC)cc2)cc1 (stereo not given)",
    "TARGET SYSTEM": "SF-295",
    "RECORDED RESULT": "> 10%"
  },
  {
    "COMPOUND": "C1=CN2C(=NC3=C(CCC/C3=C\\c3ccccc3)C2c2ccccc2)S1 (stereo not given)",
    "TARGET SYSTEM": "SF-295",
    "RECORDED RESULT": "> 10%"
  },
  {
    "COMPOUND": "CCN1CC2=C(N=C3SC=C(C)N3C2c2cccs2)/C(=C/c2cccs2)C1 (stereo not given)",
    "TARGET SYSTEM": "SF-295",
    "RECORDED RESULT": "> 10%"
  }
]

input: # get_value(readout= inhibition of growth at 10 µM, system= SF-295) for CCN1CC2=C(N=C3SC=CN3C2c2ccc(OC)c(OC)c2)/C(=C/c2ccc(OC)c(OC)c2)C1 (stereo not given)
output: 82.2%

input: # returns recorded inhibition of growth at 10 µM (system: SF-295) for CCN1CC2=C(N=C3SC=CN3C2c2ccc(OC)cc2)/C(=C/c2ccc(OC)cc2)C1 (stereo not given)
output: 71.8%

input: Param readout = inhibition of growth at 10 µM; param system = SF-295; param query = CCN1CC2=C(N=C3SC=C(C)N3C2c2ccc(OC)cc2)/C(=C/c2ccc(OC)cc2)C1 (stereo not given) ; response: value
output: > 10%

input: Give SF-295 inhibition of growth at 10 µM for COc1ccc(/C=C2\CCCC3=C2N=C2SC=CN2C3c2ccc(OC)c(OC)c2)cc1OC (stereo not given)
output: > 10%

input: Short answer please: inhibition of growth at 10 µM, SF-295, entry CCN1CC2=C(N=C3SC=C(C)N3C2c2ccc(OC)c(OC)c2)/C(=C/c2ccc(OC)c(OC)c2)C1 (stereo not given)
output: 69.2%

input: Can you look up inhibition of growth at 10 µM on SF-295 for C1=CN2C(=NC3=C(CCC/C3=C\c3cccs3)C2c2cccs2)S1 (stereo not given) ?
output: > 10%

input: Provide value of inhibition of growth at 10 µM for this record tested with SF-295: COc1cc(/C=C2\CCCC3=C2N=C2SC=C(C)N2C3c2cc(OC)c(OC)c(OC)c2)cc(OC)c1OC (stereo not given)
output: > 10%

====

# Tested on: A549
# PROTOCOL TEXT: Growth inhibition of human A549 cells at 10 uM after 48 hrs by coulter counting
# Assay type: functional
# EXPERIMENTAL PARAMETERS: A549, 48 h, read-out: GI
Known inhibition of growth at 10 µM of a selection of compounds

Some compounds with known inhibition of growth at 10 µM results, for comparison:
[
  {
    "COMPOUND": "C1=CN2C(=NC3=C(CCC/C3=C\\c3ccccc3)C2c2ccccc2)S1 (stereo not given)",
    "inhibition of growth at 10 µM": "> 10%"
  },
  {
    "COMPOUND": "CC1=CSC2=NC3=C(CCC/C3=C\\c3cccs3)C(c3cccs3)N12 (stereo not given)",
    "inhibition of growth at 10 µM": "> 10%"
  },
  {
    "COMPOUND": "COc1ccc(/C=C2\\CCCC3=C2N=C2SC=C(C)N2C3c2ccc(OC)c(OC)c2)cc1OC (stereo not given)",
    "inhibition of growth at 10 µM": "> 10%"
  },
  {
    "COMPOUND": "COc1cc(/C=C2\\CCCC3=C2N=C2SC=C(C)N2C3c2cc(OC)c(OC)c(OC)c2)cc(OC)c1OC (stereo not given)",
    "inhibition of growth at 10 µM": "> 10%"
  },
  {
    "COMPOUND": "COc1ccc(/C=C2\\CCCC3=C2N=C2SC=CN2C3c2ccc(OC)c(OC)c2)cc1OC (stereo not given)",
    "inhibition of growth at 10 µM": "> 10%"
  }
]

input: Query: inhibition of growth at 10 µM; subject: COc1ccc(/C=C2\CCCC3=C2N=C2SC=C(C)N2C3c2ccc(OC)cc2)cc1 (stereo not given)
output: > 10%

input: Sample CCN1CC2=C(N=C3SC=C(C)N3C2c2cccs2)/C(=C/c2cccs2)C1 (stereo not given) — what was its inhibition of growth at 10 µM?
output: > 10%

input: Find the recorded inhibition of growth at 10 µM belonging to CCN1CC2=C(N=C3SC=CN3C2c2ccc(OC)c(OC)c2)/C(=C/c2ccc(OC)c(OC)c2)C1 (stereo not given) and report it.
output: 61.1%

input: # get_value(readout='inhibition of growth at 10 µM', item= CCN1CC2=C(N=C3SC=C(C)N3C2c2ccc(OC)c(OC)c2)/C(=C/c2ccc(OC)c(OC)c2)C1 (stereo not given) )
output: 93.2%

input: # get_value(readout='inhibition of growth at 10 µM', item= CC1=CSC2=NC3=C(CCC/C3=C\c3ccccc3)C(c3ccccc3)N12 (stereo not given) )
output: > 10%

input: Using the record for CCN1CC2=C(N=C3SC=CN3C2c2cccs2)/C(=C/c2cccs2)C1 (stereo not given) , report its inhibition of growth at 10 µM.
output: > 10%

input: // lookup inhibition of growth at 10 µM for CCN1CC2=C(N=C3SC=CN3C2c2ccc(OC)cc2)/C(=C/c2ccc(OC)cc2)C1 (stereo not given)
output: 66.3%

input: Using the record for COc1ccc(/C=C2\CCCC3=C2N=C2SC=CN2C3c2ccc(OC)cc2)cc1 (stereo not given) , report its inhibition of growth at 10 µM.
output: > 10%

input: # get_value(readout='inhibition of growth at 10 µM', item= CCN1CC2=C(N=C3SC=C(C)N3C2c2ccc(OC)cc2)/C(=C/c2ccc(OC)cc2)C1 (stereo not given) )
output: > 10%

input: Please look up its inhibition of growth at 10 µM: C1=CN2C(=NC3=C(CCC/C3=C\c3cccs3)C2c2cccs2)S1 (stereo not given)
output: > 10%
